Data origin, for the record: patent EP0330218B1

The molecules below have reported IC50 for Lysyl oxidase (Bos taurus, UniProt P33072).
OBSERVED PROPERTY: IC50 (nM)

[[record]]
molecule = "CC(C)C/C(=C\\F)CN [(E)-2-Isobutyl-3-fluoroallylamine]"
value_observed = 10

[[record]]
molecule = "NC/C(=C/F)c1ccccc1 [(E)-2-Phenyl-3-fluoroallylamine]"
value_observed = 1

[[record]]
molecule = "NC/C(=C/Cl)c1ccccc1 [(E)-2-Phenyl-3-chloroallylamine]"
value_observed = 100

[[record]]
molecule = "NC/C(=C\\F)CSc1ccccc1"
value_observed = 0.1

[[record]]
molecule = "CCNC/C(=C/F)c1ccc(OC)c(OC)c1"
value_observed = 1000

[[record]]
molecule = "CC(C)C/C(=C\\Cl)CN [(E)-2-Isobutyl-3-chloroallylamine]"
value_observed = 100

[[record]]
molecule = "CCCCCCCCCCC/C(=C\\F)CN [(E)-2-Undecyl-3-fluoroallylamine]"
value_observed = 100

[[record]]
molecule = "COc1ccc(/C(=C\\F)CN)cc1OC"
value_observed = 100

[[record]]
molecule = "NC/C(=C/Cl)CCc1ccccc1 [(E)-2-Phenethyl-3-chloroallylamine]"
value_observed = 10

[[record]]
molecule = "COc1ccc(CCC/C(=C\\F)CN)cc1OC"
value_observed = 0.1

[[record]]
molecule = "NC/C(=C/F)c1cccs1 [(Z)-2-(2-Thienyl)-3-fluoroallylamine]"
value_observed = 1

[[record]]
molecule = "NC/C(=C/F)CCc1ccc(F)cc1"
value_observed = 0.1

